# stated conditions: male, Sprague-Dawley Crl:CD(SD), in vivo, iv
outcome measure: Rat unbound CL (mL/min/kg)

These recorded examples may help you get a feel for the data.
C[C@H]1Oc2cccnc2N(C)C(=O)[C@H]1NC(=O)c1nnc(Cc2ccccc2)[nH]1: 44
C[C@H]1Oc2cccnc2N(C)C(=O)[C@H]1NC(=O)c1nnc(Cc2ccccc2)o1: 100
C[C@H]1Oc2cccnc2N(C)C(=O)[C@H]1NC(=O)c1nn(Cc2ccccc2)cc1F: 420

I = CN1C(=O)[C@@H](NC(=O)c2ncn(Cc3cccc(C#N)c3)n2)COc2cccnc21
II = CN1C(=O)[C@@H](NC(=O)c2nnc(Cc3ccccc3)[nH]2)[C@H]2C[C@H]2c2cccnc21 [Example 75A]
III = CN1C(=O)[C@@H](NC(=O)c2nnc(Cc3ccccc3)o2)[C@H]2C[C@H]2c2nccnc21 [Example 177A]
INPUT: Order the records so the highest Rat unbound CL appears first and the lowest last. Lab note: record answer as labels in requested order.
OUTPUT: II, III, I
(II: 91 mL/min/kg, III: 55 mL/min/kg, I: 32 mL/min/kg)

###

# tgt: GST-hRIPK1 (8-327) (Homo sapiens (Human))
# protocol summary: Fluorescent Polarization Binding (FP Binding) assay
outcome measure: IC50

INPUT: Which measured IC50 value corresponds to CN1C(=O)[C@@H](NC(=O)[C@H]2C[C@@H]2Cc2ccccc2)COc2ccccc21 (single isomer, unassigned) [Example 50B] ?
OUTPUT: 1 to 10 µM

INPUT: Which measured IC50 value corresponds to Cc1ncccc1Cn1cc(F)c(C(=O)N[C@H]2CCc3nccnc3N(C)C2=O)n1 [Example 182B] ?
OUTPUT: 0.0001 to 1 µM

INPUT: Which measured IC50 value corresponds to CN1C(=O)[C@H](NC(=O)c2nnc(Cc3ccccc3)[nH]2)CC2(CC2)c2cccnc21 [Example 125A] ?
OUTPUT: > 3 µM

INPUT: Which measured IC50 value corresponds to CN1C(=O)[C@@H](NC(=O)c2nnc(Cc3ccccc3)[nH]2)[C@H]2C[C@H]2c2ccccc21 [Example 46A] ?
OUTPUT: 0.0001 to 1 µM

INPUT: Which measured IC50 value corresponds to Cc1cnn2c1N(C)C(=O)[C@H](NC(=O)c1nnc(Cc3ccccc3)[nH]1)CC2 [Example 131B] ?
OUTPUT: > 3 µM

INPUT: Which measured IC50 value corresponds to Cn1cc2c(n1)CC[C@H](NC(=O)c1nnc(Cc3ccccc3)[nH]1)C(=O)N2 [Example 104B] ?
OUTPUT: 0.0001 to 1 µM

INPUT: Which measured IC50 value corresponds to CN1C(=O)[C@@H](NC(=O)c2nn(Cc3ccc(F)cc3)cc2F)COc2cccnc21 ?
OUTPUT: 0.0001 to 1 µM

###

Overview of reported IC50 across a group of molecules:
# tgt: GST-hRIPK1 (8-327) (Homo sapiens (Human), UniProt Q13546)
# Sequence (Q13546 8-327): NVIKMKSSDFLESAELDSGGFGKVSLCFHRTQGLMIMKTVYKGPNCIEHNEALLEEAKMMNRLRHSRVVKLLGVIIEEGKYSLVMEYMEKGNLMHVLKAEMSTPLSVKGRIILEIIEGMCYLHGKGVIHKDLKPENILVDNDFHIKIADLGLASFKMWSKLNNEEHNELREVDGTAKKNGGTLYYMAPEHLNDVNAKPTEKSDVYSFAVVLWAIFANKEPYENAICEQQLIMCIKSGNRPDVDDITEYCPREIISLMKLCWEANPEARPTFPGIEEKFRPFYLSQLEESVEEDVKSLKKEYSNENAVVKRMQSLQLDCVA
# protocol summary: Fluorescent Polarization Binding (FP Binding) assay

These recorded examples may help you get a feel for the data.
Cc1nc2c(s1)CC[C@@H](NC(=O)c1nnc(Cc3ccccc3)[nH]1)C(=O)N2C [Example 38B]: > 3 µM
CN1C(=O)[C@@H](NC(=O)c2nn(Cc3ccccc3F)cc2F)CCc2nccnc21 [Example 178A]: 0.0001 to 1 µM
CN1C(=O)[C@@H](NC(=O)c2cc(CC(F)(F)F)on2)COc2ccccc21: 0.0001 to 1 µM

INPUT: Which measured IC50 value corresponds to CN1C(=O)[C@@H](NC(=O)c2nnc(Cc3ccccc3)s2)[C@H]2C[C@H]2c2nccnc21 ?
OUTPUT: 0.0001 to 1 µM

INPUT: Which measured IC50 value corresponds to N#Cc1cccc(Cc2nnc(C(=O)N[C@@H]3C(=O)Nc4c(F)cc(F)cc4[C@@H]4C[C@H]34)[nH]2)c1 [Example 181B] ?
OUTPUT: 0.0001 to 1 µM

###

# stated conditions: male, Sprague-Dawley Crl:CD(SD), in vivo, iv
outcome measure: Rat unbound CL (mL/min/kg)

These recorded examples may help you get a feel for the data.
CN1C(=O)[C@@H](NC(=O)c2nnc(Cc3ccccc3)o2)COc2cccnc21: 61
CN1C(=O)[C@@H](NC(=O)c2cc(C3(c4ccccc4)CC3)on2)COc2ccccc21: 3700

1 = CN1C(=O)[C@@H](NC(=O)c2nnc(Cc3ccccc3)[nH]2)COc2ccccc21 [A, reference compound]
2 = CN1C(=O)[C@@H](NC(=O)c2nnc(Cc3ccccc3)[nH]2)COc2cccnc21
INPUT: Returns the identifier with the smallest measured Rat unbound CL among 1 and 2 . Indicate your choice by writing its label.
OUTPUT: 2

###

# Tested on: human cryopreserved hepatocytes
# protocol summary: Metabolic stability (hepatocytes)
# stated conditions: human cryopreserved hepatocytes
outcome measure: Human hepatocyte CLhep Avg (mL/min/kg)

CN1C(=O)[C@@H](NC(=O)c2cn(Cc3ccccc3)nn2)[C@H]2C[C@H]2c2nccnc21: 7.1

I = CN1C(=O)[C@@H](NC(=O)c2cc(Cc3ccccc3)on2)COc2ccccc21 [C, reference compound]
II = N#Cc1cccc(Cn2cc(F)c(C(=O)N[C@@H]3C(=O)Nc4c(F)cc(F)cc4[C@@H]4C[C@H]34)n2)c1 [Example 170A]
III = [2H]C([2H])([2H])N1C(=O)[C@@H](NC(=O)c2nn(Cc3ccccc3)cc2F)[C@H]2C[C@H]2c2cc(S(C)(=O)=O)ccc21 [Example 183B]
INPUT: Write the entries in order, lowest recorded Human hepatocyte CLhep Avg first. Lab note: record answer as labels in requested order.
OUTPUT: II, III, I
(II: 3.1 mL/min/kg, III: 5.3 mL/min/kg, I: 19 mL/min/kg)

###

# Test system: FADD-deficient Jurkat cells
# protocol summary: Cellular necroptosis assay (human TNFα-induced necrosis, CellTiter-Glo)
# Assay type: cell-based
# stated conditions: Homo sapiens, Jurkat, 48 h, TNFα 10 ng/mL, read-out: Cell IC50
pIC50: −log10 of the molar value.
outcome measure: pIC50

These recorded examples may help you get a feel for the data.
CN1C(=O)[C@@H](NC(=O)c2cc(Cc3ccccc3)on2)[C@H]2C[C@H]2c2ccccc21: 6.00 to 10.00
C[C@H]1Oc2cccnc2N(C)C(=O)[C@H]1NC(=O)c1nnc(C2(c3ccccc3)CC2)o1: 6.00 to 10.00
CN1C(=O)[C@@H](NC(=O)c2nn(Cc3ccccn3)cc2F)COc2ccccc21: 6.00 to 10.00
C[C@H]1Oc2cccnc2N(C)C(=O)[C@H]1NC(=O)c1noc(Cc2ccccc2)n1: 6.00 to 10.00
CN1C(=O)[C@@H](NC(=O)c2cc(Cc3ccccc3)on2)CCc2sc(Cl)cc21 (stereo in doubt): 6.00 to 10.00
C[C@H]1Oc2cccnc2N(C)C(=O)[C@H]1NC(=O)c1ncc(Cc2ccccc2)o1: 6.00 to 10.00
Cc1nc2c(s1)CC[C@H](NC(=O)c1nnc(Cc3ccccc3)[nH]1)C(=O)N2C [Example 38A]: 6.00 to 10.00

// below: pIC50 requested for another compound
INPUT: Which measured pIC50 value corresponds to CN1C(=O)[C@@H](NC(=O)c2ncc(Cc3cccc(C#N)c3)s2)CCc2cccnc21 ?
OUTPUT: 6.00 to 10.00

###

# tgt: GST-hRIPK1 (8-327) (Homo sapiens (Human), UniProt Q13546)
# protocol summary: ADP-Glo kinase assay
# Type: biochemical
# Procedure: GST-hRIPK1 (8-327) enzyme was generated by Proteros GmbH by Baculovirus expression system. Test compounds were diluted in DMSO and 0.1 μL of solution was dispensed to each well of a 384-well white solid microplate. […] The luminescence is then measured with the Envision (PerkinElmer) plate reader. Test compound inhibition was expressed as percent inhibition of internal assay controls. For concentration response curves, normalized data is fit and IC50 determined using XL-fit (IDBS) for Excel. […]
Overview of reported IC50 across a group of molecules:

Cc1nnc(C(=O)N[C@H]2COc3ccccc3N(C)C2=O)[nH]1 [Example 25]: > 10 µM

INPUT: Which measured IC50 value corresponds to O=C(N[C@H]1COC[C@@H]2CCCN2C1=O)c1nnc(Cc2ccccc2)[nH]1 [Example 27] ?
OUTPUT: > 10 µM

INPUT: Which measured IC50 value corresponds to CN1C(=O)[C@@H](NCC(=O)NCc2ccccc2)COc2ccccc21 [Example 18] ?
OUTPUT: > 10 µM

INPUT: Which measured IC50 value corresponds to CCN1C(=O)[C@@H](NC(=O)c2cc(Cc3ccccc3)on2)COc2ccccc21 [Example 19] ?
OUTPUT: 1 to 10 µM

INPUT: Which measured IC50 value corresponds to CN1CCCC[C@H](NC(=O)c2nnc(Cc3ccccc3)[nH]2)C1=O [Example 23] ?
OUTPUT: > 10 µM

INPUT: Which measured IC50 value corresponds to Cc1cc(C(=O)N[C@H]2COc3ccccc3N(C)C2=O)n(Cc2ccccc2)n1 [Example 16] ?
OUTPUT: > 10 µM

INPUT: Which measured IC50 value corresponds to CN1CC(NC(=O)c2nnc(Cc3ccccc3)[nH]2)CCc2ccccc21 (stereo not drawn) [Example 20] ?
OUTPUT: 1 to 10 µM

INPUT: Which measured IC50 value corresponds to CN1C(=O)[C@@H](NC(=O)c2ccc(C#N)n2C)COc2ccccc21 [Example 24] ?
OUTPUT: > 10 µM

INPUT: Which measured IC50 value corresponds to O=C(N[C@H]1COC[C@H]2CCCN2C1=O)c1cc(Cc2ccccc2)on1 [Example 21] ?
OUTPUT: > 10 µM
